Each item that follows carries a reported MIP-1α level.
Test system: IL-1β, IL-6, IFN-γ, TNF-α, IL-8, MIP-1α, MCP-1, MIP-1β, RANTES
PROCEDURE_TEXT: Cytokine and chemokine assays in cynomolgus monkeys (Example 46)
Type: in vivo
PROTOCOL_CONDITIONS: day 55
Strand notation (5' to 3'): a small letter for the sugar, then the base; units joined by * are phosphorothioate-linked, units joined directly phosphodiester-linked; [ ] holds rarer units or linkages, { } end groups; capitals alone tell only the bases. e = 2'-O-(2-methoxyethyl) (MOE); [5mC] = 5-methylcytosine; d = 2'-deoxy (DNA)

SUBSTANCE: ISIS 445522: 5-8-5 or 6-8-6 MOE microwalk gapmer (Table 44) (antisense eG*e[5mC]*eA*e[5mC]*eA*dG*dT*dT*dT*d[5mC]*dT*dG*dG*e[5mC]*eA*eG*eG*e[5mC])
MIP-1α level: 22 pg/mL
//
SUBSTANCE: ISIS 449710: 3-8-3, 4-8-4, 2-10-2, 3-10-3 or 4-10-4 MOE microwalk gapmer (Table 46) (antisense e[5mC]*eA*e[5mC]*dA*dG*dT*dT*dT*d[5mC]*dT*dG*dG*d[5mC]*eA*eG*eG)
MIP-1α level: 27 pg/mL
//
SUBSTANCE: ISIS 449708: 3-8-3, 4-8-4, 2-10-2, 3-10-3 or 4-10-4 MOE microwalk gapmer (Table 46) (antisense eA*e[5mC]*eA*dG*dT*dT*dT*d[5mC]*dT*dG*dG*e[5mC]*eA*eG)
MIP-1α level: 23 pg/mL
//
SUBSTANCE: ISIS 449709: 3-8-3, 4-8-4, 2-10-2, 3-10-3 or 4-10-4 MOE microwalk gapmer (Table 46) (antisense eG*e[5mC]*eA*e[5mC]*dA*dG*dT*dT*dT*d[5mC]*dT*dG*dG*d[5mC]*eA*eG*eG*e[5mC])
MIP-1α level: 17 pg/mL

Here's the next entry for you.
// MIP-1α level lookup, substance = ISIS 416850: MOE gapmer, nucleobases 1275 to 1318 of SEQ ID NO: 1 (Table 8) (antisense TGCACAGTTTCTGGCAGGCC; MOE gapmer, wing and gap sizes not given here) , result: 17 pg/mL
